ASSAY_REMARKS: yeast display, Sf9 membrane polyspecificity reagent, FACS + sequencing; frameworks hold sequencing errors
MEASUREMENT_LABEL: polyreactivity (PSR sort gate)

MONOMER_SEQUENCE	RESULT
QVQLVESGGGLVQAGGSLRLSCAASGSIFFRNAMGWYRQAPGKERELVAAITSGGSTYYADSVKGRFTISRDNAKNTVYLQMNSLKPEDTAVYYCNREFWRSSSYRYYYWGQGTQVTVSS	high polyreactivity
QVQLVESGGGLVQAGGSLRLSCAASGRIFYPYAMGWYRQAPGKERELVAAITSDGGSTYYADSVKGRFTISRDNAKNTVYLQMNSLKPEDTAVYYCAAYEAYKANVGGGYYYWGQGTQVTVSS	low polyreactivity
QDQLVESGGGLVQAGGSLRLSCAASGNTLAANAMGWYRQAPGKERELVAAITYSGGSTYYADSVKGRFTISRDNAKNTVYLQMSSLKPEDTSVYYCNAPYVFSAGFDYWGQGTQVTVSS	low polyreactivity
QVQLVESGGSLVQAGGSLRLSCASSGYIFRLYAMGWYRHAPGKEREYVATITASGGTYYADSVKGRFTISRDNAKNTVYLQMNSLKPEDTAVYYCAAAKLRRLSRVRYVYWGQGTQVTVSS	high polyreactivity
QVQLVESGGGLVQAGGSLRLSCAASGKTFRYNAMGWYRQAPGKERELVAAISRRGGSTYYADSVKGRFTISRDNAKNTVYLQMNSLKPEDTAVYYCNAGRTAENEYWGQGTQVTVSS	high polyreactivity

###

ASSAY_REMARKS: yeast display, Sf9 membrane polyspecificity reagent, FACS + sequencing; frameworks hold sequencing errors
MEASUREMENT_LABEL: polyreactivity (PSR sort gate)

MONOMER_SEQUENCE	RESULT
QVQLVESGGGLVQSGGSLRLSCAASGRIFWYNAMRWYSQAPGKDRELVARITRGTRTYYADSVKGRFTISRDNAKNTVYLQMNSLKPEDTAVYYCRLQFSYTPHYDYWGQGTQVTVSS	high polyreactivity
QVQLVESGGGLVKAVGSLRLSCAASGINLIRYVMGLYRQAPGKERELVAAISGSGGRTYYADSVKGRFTISRDNAKTTVDLQMNSLKPEDTAVYYCAAVSFRTTHGEYDYWGQGTQVTVSS	low polyreactivity
QVQLVESGGGLVQAGGSLRLRCAASGYIFGAYALGWYRQAPGKERELVAAIHVGDASAYYADSVKGRFTISRDNAKKTVYLQMNSLKPEDTAVYYCAKDRGSWEWYTVDYWGQGTQVTVSS	low polyreactivity
QVQLVESGGGLVQAGGSLRLSCAASGRIFRDYAMGWYRQAPGKERELVAAISLSGGSTYYADSVKGRFTISRDIAKNTVYLQVNSLKPEDTAVYYCAAKYYYGGNGYWGQGTQVNVSS	low polyreactivity
QVQLVESGGGLVQAGGSLRLSCAASGRTFIVYAMGWYRQAPGKERELVAAITRSGSSTYYADSVKGRFTISRDNAKNTVYLQMNSLKPEDTAVYYCAADVGFGGYSHFDPYEYWGQGTQVTVSS	high polyreactivity

###

ASSAY_REMARKS: yeast display, Sf9 membrane polyspecificity reagent, FACS + sequencing; frameworks hold sequencing errors

MONOMER_SEQUENCE	polyreactivity (PSR sort gate)
QVQLVESGGGLVQAGGSLRLSCAASGSIFFQYAMGWYRQAPGKERELVAAISTGGSTNYADSVKGRFTISRDNAKNTVYLQMNSLKPEETAVYYCAAYSRYKGYQYDYWGQGTQVTVSS	low polyreactivity
QVQLVESGGGLVQAGGSLRLSCAASGIIFIFYDMGWYRQAPGKERELVATITSGTNTYADSVKGRFTISRDNAKNTVYLQMNSLKPEDTAVYYCNAGAVHKKPARDYWGQGTQVTVSS	low polyreactivity
HLQLVESGGGLVQAGGSLRLSCAASGSIFYYNAMGWYRQAPGKERELVASIRANGGNTYYADSVKGRFTISRDNAKNTVYLQMNSLKPEETAVYYCAKESRYAHLYYYWGQGTQVTVSS	low polyreactivity
QVQLVESGGGLVQAGGSLRLSCAASGSIFFFNAMGWYRQAPGKEREMVAAISESGTSTYYADSVKGRFTISRDNAKNTVYLQMNSLKPEDTAVYYCNVVFRYAYGVYYTPEFYYWGQGTQVTVSS	low polyreactivity
